The following binders are shown together with reported t½ values.
Molecular target: T1, hRET.mFc (human)
T1 construct: also called dimeric human RET
Assay: SPR Biacore T200, mAb capture, 25 C
Procedure: Binding affinities and kinetic constants of human anti-RET antibodies were determined by surface plasmon resonance (Biacore T200) at […] (Tables 2-3). […] Binding equilibrium dissociation constants (KD) and dissociative half-lives (t_{1/2}) were calculated from the kinetic rate constants as: KD [M]=kd/kₐ; and t_{1/2}(min)=(ln2/(60*kd). Calculations were performed using BiacoreT200 evaluation software v1.0.
Hi! Could you send only the number? It should be in h, unit omitted.

H4H8067P (antibody, human IgG4, V domains shown, human IgG4 Fc (H4H prefix)) VH: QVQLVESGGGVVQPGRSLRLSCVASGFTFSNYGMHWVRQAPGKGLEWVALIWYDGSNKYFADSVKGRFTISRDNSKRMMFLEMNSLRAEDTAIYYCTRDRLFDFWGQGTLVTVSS VL: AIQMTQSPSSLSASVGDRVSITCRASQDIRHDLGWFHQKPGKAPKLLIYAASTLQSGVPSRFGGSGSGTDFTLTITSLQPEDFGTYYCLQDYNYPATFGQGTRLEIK; 1.22

Exam item: Query: t½; subject: H4H8062P (antibody, human IgG4, V domains shown, human IgG4 Fc (H4H prefix)) VH: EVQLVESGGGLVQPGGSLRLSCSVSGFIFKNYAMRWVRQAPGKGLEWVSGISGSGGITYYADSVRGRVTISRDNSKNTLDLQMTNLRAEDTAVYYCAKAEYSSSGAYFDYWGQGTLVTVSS VL: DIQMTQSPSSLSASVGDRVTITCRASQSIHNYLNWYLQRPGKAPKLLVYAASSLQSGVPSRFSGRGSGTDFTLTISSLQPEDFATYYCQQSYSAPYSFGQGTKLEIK
Marked response: 0.883
